Tgt: T1, 4H2859-bN
T1 chain: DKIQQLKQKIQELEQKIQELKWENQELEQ
Experiment notes: two-hybrid library CCNG1;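 also: natural log of median RNA to DNA barcode read ratio; higher means stronger binding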
Test readout: interaction score

A = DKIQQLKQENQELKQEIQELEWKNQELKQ [4H2760-bN]
B = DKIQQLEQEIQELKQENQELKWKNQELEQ [4H2143-bN]
C = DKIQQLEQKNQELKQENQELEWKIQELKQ [4H2518-bN]
D = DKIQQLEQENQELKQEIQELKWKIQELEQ [4H2253-bN]
Put the listed items above in order, lowest interaction score first. Submit the labels in the order that the ranking request calls for.
C, B, D, A
(C: -0.834, B: -0.319, D: -0.113, A: 1.03)

Data provenance is paper PMC10397247.
